# Test system: MOLM14;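 note: after 48 h exposure read by CellTiter-Glo luminescence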
# method_notes: cell viability relative to vehicle control; higher = less cytotoxic
# test_conditions: 10 µM; SRSF2 genotype: SRSF2 P95H/wt
Counter-ions that a name gives are not always drawn.
value_type: cell viability (%)
State the answer as a number, implicitly in %.

Give its cell viability value. Item: `Cn1c(=O)c(F)c(Nc2ccc(I)cc2F)c2c(=O)n(C[C@@H](O)CO)cnc21` 45.7

Given the entry `NCCOc1ccc(Cl)cc1C(=O)Nc1ccc([N+](=O)[O-])cc1Cl` , report its measured cell viability. 21.3

Looking for the measured cell viability of `COc1ccc(C(NC(=O)c2cnc(-c3cccnn3)[nH]c2=O)c2ccc(OC)cc2)cc1` , can you help? 104

Request the reported cell viability associated with `Cc1ccc(O)c(O)c1` 75.4

GET /values?readout=cell viability&item= CO/N=C(\C(=O)N[C@@H]1C(=O)N2C(C(=O)[O-])=C(C[N+]3(C)CCCC3)CS[C@H]12)c1csc(N)n1 [Cefepime Dihydrochloride Monohydrate] 105
